Test system: Cydia pomonella
procedure-details: Ovicidal activity against <24 hr-old Cydia pomonella (codling moth) eggs assessed as mortality at the stage of white head development at 10 mg/ml applied as 0.1 ul drop solution topically measured for 3 days (acetone Rvb = 1.1 +/-0.44%)
Format: functional
protocol-conditions: topical, 72 h
# mortality at 10000 µg/mL annotations

>  <compound>
C=CCOC(=O)CCCCCCCCCCCCCCCCC [ALLYL OCTADECANOATE]

>  <mortality at 10000 µg/mL (%)>
43.3

$$$$
>  <compound>
C=CCOC(=O)CCCCCCCCCCCCCCC

>  <mortality at 10000 µg/mL (%)>
28.9

$$$$
>  <compound>
C=CCOC(=O)CCCCCCCCCCCCC [ALLYL TETRADECANOATE]

>  <mortality at 10000 µg/mL (%)>
54.4

$$$$
>  <compound>
C=CCOC(=O)CCCCCCCCC [ALLYL DECANOATE]

>  <mortality at 10000 µg/mL (%)>
68.9

$$$$
>  <compound>
C=CCOC(=O)CCC [ALLYL BUTANOATE]

>  <mortality at 10000 µg/mL (%)>
75.6

$$$$
>  <compound>
C=CCOC(=O)CCCCCCC [ALLYL OCTANOATE]

>  <mortality at 10000 µg/mL (%)>
80

$$$$
>  <compound>
C=CCOC(=O)CCCCC [ALLYL HEXANOATE]

>  <mortality at 10000 µg/mL (%)>
67.8

$$$$
>  <compound>
C=CCOC(=O)CCCCCCCCCCC [ALLYL DODECANOATE]

>  <mortality at 10000 µg/mL (%)>
68.9

$$$$
